species: Oryctolagus cuniculus; assay: Inhibition of HSP90 in rabbit reticulocyte lysate assessed as decrease in HSP90-dependant refolding of firefly luciferase at 10 uM after 30 mins by luciferase gene based assay
Active and inactive are the calls of the source. The calls are words filed in the database; no cut-off is given here.

- compound: "C=C1/C=C/C(=O)/C(CO)=C\\C[C@](C)(CCC=C(C)C)/C=C/[C@H]1OC(=O)C=C(C)C"
  inhibition: "Active"
- compound: "CC(=O)O[C@]1(C)/C=C/C(=O)/C(CO)=C\\C[C@](C)(CCC=C(C)C)/C=C/[C@H]1OC(=O)C=C(C)C"
  inhibition: "< 50%"
- compound: "CC(C)=CCC[C@]1(C)/C=C/[C@@H](OC(=O)C=C(C)C)[C@](C)(O)/C=C/C(=O)/C(CF)=C\\C1"
  inhibition: "Active"
- compound: "CC(C)=CCC[C@]1(C)/C=C/[C@@H](OC(=O)C=C(C)C)[C@](C)(O)/C=C/C(=O)/C(CO)=C\\C1 [VIBSANIN B]"
  inhibition: "Active"

----------
system: HepG2; assay: Antiproliferative activity against human HepG2 cells assessed as reduction in cell viability after 48 hrs by MTT assay; type: functional, cell-based; details: HepG2, 48 h
pIC50: −log10 of the molar value.
observed.property: pIC50

a = CC(C)=CCC[C@]1(C)/C=C/[C@@H](OC(=O)C=C(C)C)[C@](C)(O)/C=C/C(=O)/C(CF)=C\C1
b = CC(C)=CCC[C@]1(C)/C=C/[C@@H](OC(=O)C=C(C)C)[C@](C)(O)/C=C/C(=O)/C(CN2CCN(C)CC2)=C\C1
c = CC(C)=CCC[C@]1(C)/C=C/[C@@H](OC(=O)C=C(C)C)[C@](C)(O)/C=C/C(=O)/C(CO)=C\C1 [VIBSANIN B]
Number of compounds to sort: 3. Sort criterion: pIC50, ascending. List the labels in the requested order. c, b, a

----------
test system: SMMC-7721; assay: Antiproliferative activity against human SMMC7721 cells assessed as reduction in cell viability after 48 hrs by MTT assay; format: functional, cell-based; conditions: SMMC-7721, 48 h
observed.property: IC50 (µM)

P = CO[C@H]1/C=C/[C@@](C)(O)[C@H](OC(=O)C=C(C)C)/C=C/[C@@](C)(CCC=C(C)C)C/C=C\1CO
Q = CC(C)=CCC[C@]1(C)/C=C/[C@@H](OC(=O)C=C(C)C)[C@](C)(O)/C=C/C(=O)/C(CN(C(C)C)C(C)C)=C\C1
R = CC(=O)O[C@@H]1/C=C/[C@@](C)(CCC=C(C)C)C/C=C(/CO)C(=O)/C=C/[C@@]1(C)O
S = CC(C)=CCC[C@]1(C)/C=C/[C@@H](OC(=O)C=C(C)C)[C@](C)(O)/C=C/C(=O)/C(C(=O)N(C(C)C)C(C)C)=C\C1
Arrange by IC50, high to low. List the labels in the requested order. P, S, R, Q

----------
experiment: Half life of compound in toluene at 60 degreeC by HPLC analysis; assay type: physicochemical
observed.property: half-life (min)

P = CC(C)=CCC[C@]1(C)/C=C/[C@@H](OC(=O)C=C(C)C)[C@](C)(O)/C=C/C(=O)/C(CN2CCN(C)CC2)=C\C1
Q = CC(C)=CCC[C@]1(C)/C=C/[C@@H](OC(=O)C=C(C)C)[C@](C)(O)/C=C/C(=O)/C(CO)=C\C1
For the pair P and Q , which entry has the numerically smaller recorded half-life? Indicate which entry you chose by stating its label. Q

----------
tested on: SMMC-7721; assay: Antiproliferative activity against human SMMC7721 cells assessed as reduction in cell viability after 48 hrs by MTT assay; assay type: functional, cell-based; settings: SMMC-7721, 48 h
pIC50: −log10 of the molar value.
observed.property: pIC50

- cpd.smiles: "CC(C)=CCC[C@]1(C)/C=C/[C@@H](OC(=O)C=C(C)C)[C@](C)(O)/C=C/C(=O)/C(C(=O)N2CCCC2)=C\\C1"
  pIC50: 4.83

A = CCN(CC)C(=O)/C1=C/C[C@](C)(CCC=C(C)C)/C=C/[C@@H](OC(=O)C=C(C)C)[C@](C)(O)/C=C/C1=O
B = CC(C)=CCC[C@]1(C)/C=C/[C@@H](OC(=O)C=C(C)C)[C@](C)(O)/C=C/C(=O)/C(CO)=C\C1
For the two items A and B , which reports the higher pIC50 value? Indicate which entry you chose by stating its label. B

----------
test system: A549; assay: Antiproliferative activity against human A549 cells assessed as reduction in cell viability after 48 hrs by MTT assay; type: functional, cell-based; details: A549, 48 h
observed.property: IC50 (µM)

Observe how each entry below is paired with its result.
- cpd.smiles: "CSC(=S)OC/C1=C/C[C@](C)(CCC=C(C)C)/C=C/[C@@H](OC(=O)C=C(C)C)[C@](C)(O)/C=C/C1=O"
  quantitative.result: 0.38
- cpd.smiles: "CC(C)=CCC[C@]1(C)/C=C/[C@@H](OC(=O)C=C(C)C)[C@](C)(O)/C=C/C(=O)/C(CN=[N+]=[N-])=C\\C1"
  quantitative.result: 1.72
- cpd.smiles: "CC(C)=CCC[C@]1(C)/C=C/[C@@H](OC(=O)C=C(C)C)[C@](C)(O)/C=C/C(=O)/C(C(=O)N(C(C)C)C(C)C)=C\\C1"
  quantitative.result: 13.5
- cpd.smiles: "C=C1/C=C/C(=O)/C(CO)=C\\C[C@](C)(CCC=C(C)C)/C=C/[C@H]1OC(=O)C=C(C)C"
  quantitative.result: 3.09
- cpd.smiles: "CC(=O)OC/C1=C/C[C@](C)(CCC=C(C)C)/C=C/[C@@H](OC(=O)C=C(C)C)[C@](C)(OC(C)=O)/C=C/C1=O"
  quantitative.result: 15.1
- cpd.smiles: "CO[C@H]1/C=C/[C@@](C)(O)[C@H](OC(=O)C=C(C)C)/C=C/[C@@](C)(CCC=C(C)C)C/C=C\\1CO"
  quantitative.result: 19.2
- cpd.smiles: "CC(C)=CCC[C@]1(C)/C=C/[C@@H](OC(=O)C=C(C)C)[C@](C)(O)/C=C/C(=O)/C(C(=O)N(C)C)=C\\C1"
  quantitative.result: 2.7
- cpd.smiles: "CO[C@@H]1/C=C/[C@@](C)(O)[C@H](OC(=O)C=C(C)C)/C=C/[C@@](C)(CCC=C(C)C)C/C=C\\1CO"
  quantitative.result: 11.2
- cpd.smiles: "CC(C)=CCC[C@]1(C)/C=C/[C@@H](OC(=O)C=C(C)C)[C@](C)(O)/C=C/C(=O)/C(C(=O)N2CCCC2)=C\\C1"
  quantitative.result: 13
- cpd.smiles: "CC(C)=CCC[C@](C)(/C=C/[C@@H](OC(=O)C=C(C)C)[C@](C)(O)/C=C/C(=O)/C=C/N(C)C)CC=O"
  quantitative.result: 11.2

P = CC(C)=CCC[C@]1(C)/C=C/[C@@H](OC(=O)C=C(C)C)[C@](C)(O)/C=C/[C@@H](O)/C(CO)=C\C1
Q = CC(=O)O[C@@H]1/C=C/[C@@](C)(CCC=C(C)C)C/C=C(/CO)C(=O)/C=C/[C@@]1(C)O
For the pair P and Q , which entry has the numerically smaller recorded IC50? Indicate which entry you chose by stating its label. Q
(Q: 8.67 µM, P: 18.7 µM)

1 = CCCC(=O)O[C@@H]1/C=C/[C@@](C)(CCC=C(C)C)C/C=C(/CO)C(=O)/C=C/[C@@]1(C)O
2 = CC(C)=CCC[C@]1(C)/C=C/[C@@H](OC(=O)c2ccccc2)[C@](C)(O)/C=C/C(=O)/C(CO)=C\C1
For the pair 1 and 2 , which entry has the numerically smaller recorded IC50? Indicate which entry you chose by stating its label. 1
(1: 4.1 µM, 2: 15.8 µM)

1 = CC(C)=CCC[C@]1(C)/C=C/[C@@H](OC(=O)C=C(C)C)[C@](C)(O)/C=C/C(=O)/C(CO[Si](c2ccccc2)(c2ccccc2)C(C)(C)C)=C\C1
2 = CO/N=C/C1=C/C[C@](C)(CCC=C(C)C)/C=C/[C@@H](OC(=O)C=C(C)C)[C@](C)(O)/C=C/C1=O
For the pair 1 and 2 , which entry has the numerically smaller recorded IC50? Indicate which entry you chose by stating its label. 2

A = CC(C)=CCC[C@]1(C)/C=C/[C@@H](OC(=O)C=C(C)C)[C@](C)(O)/C=C/C(=O)/C(COC(=O)c2ccc([N+](=O)[O-])cc2)=C\C1
B = COC/C1=C/C[C@](C)(CCC=C(C)C)/C=C/[C@@H](OC(=O)C=C(C)C)[C@](C)(OC)/C=C/C1=O
C = CC(C)=CCC[C@](C)(/C=C/[C@@H](OC(=O)C=C(C)C)[C@](C)(O)/C=C/C(=O)/C=C/N1CCOCC1)CC=O
Hey, can you sort those molecules up there by IC50, smallest first? List the labels in the requested order. A, B, C
